Values were extracted from ChEMBL document CHEMBL3400108.

Target: Tyrosine-protein phosphatase non-receptor type 11 (Homo sapiens)
Sequence (whole entry): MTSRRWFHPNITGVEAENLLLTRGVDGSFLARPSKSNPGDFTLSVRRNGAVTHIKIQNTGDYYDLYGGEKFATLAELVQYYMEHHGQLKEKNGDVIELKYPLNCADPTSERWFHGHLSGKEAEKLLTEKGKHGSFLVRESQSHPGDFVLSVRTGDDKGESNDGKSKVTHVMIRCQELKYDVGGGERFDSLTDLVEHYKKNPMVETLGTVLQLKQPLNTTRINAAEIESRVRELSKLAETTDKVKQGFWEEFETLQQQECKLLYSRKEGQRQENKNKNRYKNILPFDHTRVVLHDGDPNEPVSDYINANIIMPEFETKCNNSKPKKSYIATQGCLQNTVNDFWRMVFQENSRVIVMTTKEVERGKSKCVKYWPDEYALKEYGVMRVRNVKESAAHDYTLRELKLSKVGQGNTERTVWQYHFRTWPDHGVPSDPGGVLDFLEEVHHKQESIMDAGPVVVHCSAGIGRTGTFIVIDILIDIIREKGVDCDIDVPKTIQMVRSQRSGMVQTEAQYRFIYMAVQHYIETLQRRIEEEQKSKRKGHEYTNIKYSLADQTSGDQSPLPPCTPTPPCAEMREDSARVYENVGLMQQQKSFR
Test: Inhibition of SHP2 (unknown origin) at 20 uM
Non-standard residues stand in square brackets, D forms with d. Residues, ends and D or L forms follow the SMILES beside them. Groups on a side chain read outwards from the residue. *: point of attachment. Phe(4-Br) = N[C@@H](Cc1ccc(Br)cc1)C(=O)O; Phe(4-Cl) = N[C@@H](Cc1ccc(Cl)cc1)C(=O)O; Phe(4-F) = N[C@@H](Cc1ccc(F)cc1)C(=O)O; 2Nal = N[C@@H](Cc1ccc2ccccc2c1)C(=O)O; NEt2 = CCN(CC)*
Below, each entry is listed alongside its reported inhibition.
Write the value in % as a bare number.

Check out these entries, answers already filled in.
CCN(CC)C(=O)[C@H](Cc1ccccc1)NC(=O)[C@H](CC(C)C)NC(=O)[C@@H](NC(=O)[C@@H](N)COC(=O)[C@@H]1CCCN1C(C)=O)C(C)C (H-S([Pro-Ac])VLF-NEt2)
29
CCN(CC)C(=O)[C@H](Cc1ccc(F)cc1)NC(=O)[C@H](CC(C)C)NC(=O)[C@@H](NC(=O)[C@@H](N)COC(=O)[C@@H]1CCCN1C(C)=O)C(C)C (H-S([Pro-Ac])VL[Phe(4-F)]-NEt2)
44
CCN(CC)C(=O)[C@H](Cc1ccc(Cl)cc1)NC(=O)[C@H](CC(C)C)NC(=O)[C@@H](NC(=O)[C@@H](N)COC(=O)[C@@H]1CCCN1C(C)=O)C(C)C (H-S([Pro-Ac])VL[Phe(4-Cl)]-NEt2)
37

**Query** Param item = CCN(CC)C(=O)[C@H](Cc1ccc2ccccc2c1)NC(=O)[C@H](CC(C)C)NC(=O)[C@@H](NC(=O)[C@@H](N)COC(=O)[C@H](CC(C)C)NC(C)=O)C(C)C (H-S([Leu-Ac])VL[2Nal]-NEt2) ; retrieve measured inhibition.
**Result** 27

**Query** Repeat with CCN(CC)C(=O)[C@H](Cc1ccc(Cl)cc1)NC(=O)[C@H](CC(C)C)NC(=O)[C@@H](NC(=O)[C@@H](N)COC(=O)[C@H](CC(C)C)NC(C)=O)C(C)C (H-S([Leu-Ac])VL[Phe(4-Cl)]-NEt2)
**Result** 21

**Query** Repeat with CCN(CC)C(=O)[C@H](Cc1ccc(Br)cc1)NC(=O)[C@H](CC(C)C)NC(=O)[C@@H](NC(=O)[C@@H](N)COC(=O)[C@@H]1CCCN1C(C)=O)C(C)C (H-S([Pro-Ac])VL[Phe(4-Br)]-NEt2)
**Result** 20

**Query** Repeat with CCN(CC)C(=O)[C@H](Cc1ccc(F)cc1)NC(=O)[C@H](CC(C)C)NC(=O)[C@@H](NC(=O)[C@@H](N)COC(=O)[C@H](CC(C)C)NC(C)=O)C(C)C (H-S([Leu-Ac])VL[Phe(4-F)]-NEt2)
**Result** 32
